Where these numbers come from: the supplement of paper PMC13380429

Kindly supply the reported cell viability values for the records listed here.
# Tested on: Calu-3
# Assay method text: cell viability relative to DMSO; higher = less toxic
# Cond: 72 h; 100 nM
Numbers only, in %.

> print(dat)
                                   compound     tgt  unit.info  quantitative.readout
1  OCCn1cc(-c2ccc3c(c2)CC/C3=N\O)c(-c2ccncc2)n1  Calu-3          %                  95.2
2  COc1ccc2c(c1)c(CC(=O)N1CCOCC1)c(C)n2C(=O)c1ccc(Cl)cc1  Calu-3          %                  92.7
3  COc1cc(N)c(Cl)cc1C(=O)CCC1CCN(CCNS(C)(=O)=O)CC1  Calu-3          %                  88.3
4  Cc1cc(C)nc(SCC(=O)Nc2ncc(Cc3cccc4ccccc34)s2)n1  Calu-3          %                  95.1
5  Cc1ncc(C)n2nc([C@@H]3C[C@H]3c3nc4c5cccnc5ccn4c3C)nc12  Calu-3          %                   105

Provide the reported cell viability of each entry below, same order.
1. CN(C)CCN1C(=O)c2cccc3cc(NC(N)=O)cc(c23)C1=O
2. CC[N+]1(C)CCCC(OC(=O)C(O)(c2ccccc2)c2ccccc2)C1 (stereo not drawn) [pipenzolate]
3. CCOC(=O)Nc1ccc2c(c1)N(C(=O)CN(C)C)c1ccccc1CC2
4. COCc1nnc(N2CC(Oc3ccc(F)cc3Cl)C2)n1-c1ccc(OC)nc1

Outgoing:
1. 95.9
2. 93.3
3. 87
4. 101

Provide cell viability for all items below, preserving their order.
1. COc1ccc(Cc2nccc3cc(OC)c(OC)cc23)cc1OC
2. COc1ccccc1N1CCN(CCCCN2C(=O)CCC2=O)CC1
3. CC(C)n1cnc2c(NCCc3ccc(O)cc3)nc(-c3csc4ccccc34)nc21
4. CNC(=N)NCCC[C@H](N)C(=O)O
5. COc1ccc2[nH]c(SCc3ncc(C)c(OC)c3C)nc2c1 [omeprazole-sulfide]
6. O=C(Nc1ccc(O)cc1)c1ccccc1O
7. CC(C(=O)O)c1ccc(C(=O)c2cccs2)cc1 (stereo not drawn)

Outgoing:
1. 98.8
2. 96.6
3. 101
4. 96.8
5. 101
6. 95.2
7. 89

----------
# Test system: U2OS
# Assay method text: cell viability relative to DMSO; higher = less toxic
# Cond: 72 h; 1 nM
Property name: cell viability (%)
Numbers only, in %.

Would you please look over these solved cases?
> print(dat)
                                   molecule   property.name  unit.info  quantitative.readout
1  CCCCC/C=C\C/C=C\CCCCCCCC(=O)NCCCC(=O)O [GABA-linoleamide]  cell viability          %                  95.2
2   Cc1cc(C2CCCCC2)n(O)c(=O)c1 [ciclopirox]  cell viability          %                   105
3       CCNCc1cc(C(C)(C)C)c(O)c(C(C)(C)C)c1  cell viability          %                   102

// input: 2 molecules below; output: cell viability for each
1. Cn1ccc2cc(NC(=O)Nc3cccnc3)ccc21
2. CCCCCCCCNC(=O)/C(C#N)=C/c1cn(CCCN(C)C)c2ccccc12 [dynole-34-2]

Outgoing:
105
104

----------
# Test system: A549-ACE2 infected with SARS-CoV-2
# Assay method text: SARS-CoV-2 infection rate relative to DMSO; higher = more infection
# Cond: 0.3 µM; 24 h
Property name: SARS-CoV-2 infection rate (%)
One number for each entry, in %.

// worked examples, SARS-CoV-2 infection rate included
> print(dat)
                                   molecule  unit.info  quantitative.readout
1  CN(C)CCCCC(=O)Nc1ccc(NC(=S)NC(=O)c2ccc(C(C)(C)C)cc2)cc1 [tenovin-6]          %                    90
2  Nc1ccc(C(=O)Nc2cccc(-c3nc(N4CCOCC4)c4oc5ncccc5c4n3)c2)cn1          %                    90
3  CN1CCC[C@@H]1CCO[C@](C)(c1ccccc1)c1ccc(Cl)cc1 [clemastine]          %                   100
4  CCCCCCCCNC(=O)/C(C#N)=C/c1cn(CCCN(C)C)c2ccccc12 [dynole-34-2]          %                   105
5  CC(C)n1cnc2c(NCCc3ccc(O)cc3)nc(-c3csc4ccccc34)nc21 [stemregenin-1]          %                    93

Moving on to another molecule below.
Entry N#Cc1ccc(N2N=C3c4ccc(C(=O)O)cc4CC[C@@H]3[C@@H]2C2CCCC2)cc1Cl — recorded SARS-CoV-2 infection rate = 101

----------
# Tested on: HepG2
# Assay method text: cell viability relative to DMSO; higher = less toxic
# Cond: 72 h; 10000 nM
For each record, check the reported cell viability: if it is below 90% write met, else write not met.

Compound	Class assignment
NCCc1cc(O)c(O)cc1O [oxidopamine]	not met

Incoming: hey, is cell viability for CCn1c(=O)[nH]c2cc(Cl)c(Cl)cc21 [DCEBIO] lower than 90% or not?
Outgoing: not met

Incoming: cell viability strictly < 90% for this compound? NCCCC[C@@H]1NC(=O)[C@@H](Cc2c[nH]c3ccccc23)NC(=O)[C@H](c2ccccc2)NC(=O)[C@@H]2C[C@@H](OC(=O)NCCN)CN2C(=O)[C@H](Cc2ccccc2)NC(=O)[C@H](Cc2ccc(OCc3ccccc3)cc2)NC1=O [pasireotide]
Outgoing: not met

Incoming: Threshold test, cell viability < 90%: CN1CCC[C@@H]1CCO[C@](C)(c1ccccc1)c1ccc(Cl)cc1 [clemastine]
Outgoing: met

Incoming: Quick check: does COc1cc2/c(=N/c3ccc(Br)cc3F)nc[nH]c2cc1OCC1CCN(C)CC1 [vandetanib] have cell viability under 90%?
Outgoing: met

Incoming: Lab note: cell viability threshold 90%. Does this compound come in strictly under it? O=C(O)C1=C(CSc2nnnn2CS(=O)(=O)O)CS[C@@H]2[C@H](NC(=O)[C@H](O)c3ccccc3)C(=O)N12 [Cefonicid (sodium)]
Outgoing: not met

Incoming: Threshold test, cell viability < 90%: OCc1cc([C@@H](O)CNCCCCCCOCCOCc2c(Cl)cccc2Cl)ccc1O [vilanterol]
Outgoing: not met

Incoming: Item O=C(c1ccc(CN2CCOCC2)cc1)N1CCN(C2CC2)CC1 [bavisant] : cell viability beneath 90%, strictly?
Outgoing: not met

----------
# System: Caco-2
# Assay method text: cell viability relative to DMSO; higher = less toxic
# Cond: 72 h; 1000 nM
Counter-ions that a name gives are not always drawn.
With a cut-off of 90%, any cell viability strictly below it is called TRUE; any cell viability meeting it or above is called FALSE.

Solved cases (10 shown):
> print(dat)
                                    compound  class.assignment
 1  CC/C(=C(/c1ccc(/C=C/C(=O)O)cc1)c1ccc2[nH]ncc2c1)c1ccc(F)cc1Cl             FALSE
 2  C[C@H]1C[C@H]2[C@@H]3CCC4=CC(=O)C=C[C@]4(C)[C@H]3C(=O)C[C@]2(C)[C@@]1(O)C(=O)CO             FALSE
 3           Cn1ccc2cc(NC(=O)Nc3cccnc3)ccc21              TRUE
 4              Oc1cc(Cl)ccc1Oc1ccc(Cl)cc1Cl             FALSE
 5  Nc1ncnc2c1ncn2[C@@H]1O[C@H](C[C@@H](N)CC[C@H](N)C(=O)O)[C@@H](O)[C@H]1O             FALSE
 6  O=[N+]([O-])c1c(Nc2cc(F)cc(Cl)c2)ccc2nonc12             FALSE
 7  Cc1cc(C)c(CNC(=O)c2cc(-c3ccc(N4CCN(C)CC4)nc3)cc3c2c(C)cn3C(C)C)c(=O)[nH]1             FALSE
 8  CCC(=O)O[C@H](CC(=O)O)C[N+](C)(C)C [levocarnitine-propionate]             FALSE
 9  C[C@]12CC[C@H](O)CC1=CC[C@@H]1[C@@H]2CC[C@]2(C)C(c3cccnc3)=CC[C@@H]12             FALSE
10  C#C[C@]1(O)CC[C@H]2[C@@H]3CCc4cc(OC5CCCC5)ccc4[C@H]3CC[C@@]21C             FALSE

Incoming: Bench note: check whether CC(C)Oc1ccc(-c2cnc3c(-c4ccnc5ccccc45)cnn3c2)cc1 shows cell viability below 90%
Outgoing: FALSE

Incoming: Does the reported cell viability of the following compound sit strictly below 90%? Cc1nc(Nc2ncc(C(=O)Nc3c(C)cccc3Cl)s2)cc(N2CCN(CCO)CC2)n1
Outgoing: TRUE

Incoming: Is cell viability of CC(C)(O)CC(=O)NCCn1ccc2ncnc(Nc3ccc(Oc4cccc(C(F)(F)F)c4)c(Cl)c3)c21 strictly below 90%?
Outgoing: TRUE

Incoming: Threshold test, cell viability < 90%: C[n+]1c2cc(N)ccc2cc2ccc(N)cc21
Outgoing: TRUE

Incoming: For this compound, is cell viability lower than 90%? CN1[C@@H]2CC[C@H]1C[C@@H](OC(=O)C(CO)c1ccccc1)C2 (some centres not stated) [ATROPINE SULFATE]
Outgoing: FALSE

Incoming: Find out if reported cell viability for Cc1cc(-c2nc(-c3ccc(OC(F)(F)F)cc3)no2)nn1Cc1ccnc(N2CCN(C3CC3)CC2)c1 is less than 90%
Outgoing: TRUE
